- System: Bacillus subtilis ATCC 6633
- Assay type: cell-based
Non-standard residues stand in square brackets, D forms with d. Residues, ends and D or L forms follow the SMILES beside them. dPhe(3,4-Cl2) = N[C@H](Cc1ccc(Cl)c(Cl)c1)C(=O)O; dPhe(4-Cl) = N[C@H](Cc1ccc(Cl)cc1)C(=O)O; dPhe(4-Me) = Cc1ccc(C[C@@H](N)C(=O)O)cc1; dPhe(4-F) = N[C@H](Cc1ccc(F)cc1)C(=O)O; d2Nal = N[C@H](Cc1ccc2ccccc2c1)C(=O)O
Measurement kind: MIC Bacillus subtilis ATCC 6633 (µg/mL)

compound="CC(=O)N[C@H](CCCNC(=N)N)C(=O)N[C@H](CCCCN)C(=O)N[C@H](CC(C)C)C(=O)N[C@H](CC(C)C)C(=O)N[C@H](Cc1ccccc1)C(=O)N[C@H](CCCNC(=N)N)C(=O)N[C@H](CC(C)C)C(=O)N[C@H](CCCCN)C(=O)N[C@H](Cc1ccc2ccccc2c1)C(=O)N[C@H](CCCNC(=N)N)C(=O)N[C@H](CCCCN)C(N)=O [LV-3] (Ac-[dR][dK][dL][dL][dF][dR][dL][dK][d2Nal][dR][dK]-NH2)" experimental_system="Bacillus subtilis ATCC 6633" value_measured=2
compound="CC(=O)N[C@H](CCCNC(=N)N)C(=O)N[C@H](CCCCN)C(=O)N[C@H](CC(C)C)C(=O)N[C@H](CC(C)C)C(=O)N[C@H](Cc1ccc(F)cc1)C(=O)N[C@H](CCCCN)C(=O)N[C@H](CC(C)C)C(=O)N[C@H](CCCCN)C(=O)N[C@H](Cc1ccc(F)cc1)C(=O)N[C@H](CCCCN)C(=O)N[C@H](CCCNC(=N)N)C(N)=O [LV-5] (Ac-[dR][dK][dL][dL][dPhe(4-F)][dK][dL][dK][dPhe(4-F)][dK][dR]-NH2)" experimental_system="Bacillus subtilis ATCC 6633" value_measured=4
compound="CC(=O)N[C@H](CCCNC(=N)N)C(=O)N[C@H](CCCNC(=N)N)C(=O)N[C@H](CC(C)C)C(=O)N[C@H](CC(C)C)C(=O)N[C@H](Cc1ccc2ccccc2c1)C(=O)N[C@H](CCCCN)C(=O)N[C@H](CC(C)C)C(=O)N[C@H](CCCCN)C(=O)N[C@H](Cc1ccc2ccccc2c1)C(=O)N[C@H](CCCCN)C(=O)N[C@H](CCCNC(=N)N)C(N)=O [LV-24] (Ac-[dR][dR][dL][dL][d2Nal][dK][dL][dK][d2Nal][dK][dR]-NH2)" experimental_system="Bacillus subtilis ATCC 6633" value_measured=2
compound="CC(=O)N[C@H](CCCCN)C(=O)N[C@H](CCCCN)C(=O)N[C@H](CC(C)C)C(=O)N[C@H](CC(C)C)C(=O)N[C@H](Cc1ccc2ccccc2c1)C(=O)N[C@H](CCCNC(=N)N)C(=O)N[C@H](CC(C)C)C(=O)N[C@H](CCCCN)C(=O)N[C@H](Cc1ccc2ccccc2c1)C(=O)N[C@H](CCCNC(=N)N)C(=O)N[C@H](CCCCN)C(N)=O [LV-19] (Ac-[dK][dK][dL][dL][d2Nal][dR][dL][dK][d2Nal][dR][dK]-NH2)" experimental_system="Bacillus subtilis ATCC 6633" value_measured=8
compound="CC(=O)N[C@H](CCCNC(=N)N)C(=O)N[C@H](CCCCN)C(=O)N[C@H](C)C(=O)N[C@H](C)C(=O)N[C@H](Cc1ccc2ccccc2c1)C(=O)N[C@H](CCCNC(=N)N)C(=O)N[C@H](C)C(=O)N[C@H](CCCCN)C(=O)N[C@H](Cc1ccc2ccccc2c1)C(=O)N[C@H](CCCNC(=N)N)C(=O)N[C@H](CCCCN)C(N)=O [LV-15] (Ac-[dR][dK][dA][dA][d2Nal][dR][dA][dK][d2Nal][dR][dK]-NH2)" experimental_system="Bacillus subtilis ATCC 6633" value_measured=4
compound="CC(=O)N[C@H](CCCNC(=N)N)C(=O)N[C@H](CCCCN)C(=O)N[C@H](CC(C)C)C(=O)N[C@H](CC(C)C)C(=O)N[C@H](Cc1ccc(Cl)c(Cl)c1)C(=O)N[C@H](CCCCN)C(=O)N[C@H](CC(C)C)C(=O)N[C@H](CCCCN)C(=O)N[C@H](Cc1ccc(Cl)c(Cl)c1)C(=O)N[C@H](CCCCN)C(=O)N[C@H](CCCNC(=N)N)C(N)=O [LV-8] (Ac-[dR][dK][dL][dL][dPhe(3,4-Cl2)][dK][dL][dK][dPhe(3,4-Cl2)][dK][dR]-NH2)" experimental_system="Bacillus subtilis ATCC 6633" value_measured=2
compound="CC(=O)N[C@H](CCCNC(=N)N)C(=O)N[C@H](CCCCN)C(=O)N[C@H](CC(C)C)C(=O)N[C@H](CC(C)C)C(=O)N[C@H](Cc1ccc2ccccc2c1)C(=O)N[C@H](CCCNC(=N)N)C(=O)N[C@H](CC(C)C)C(=O)N[C@H](CCCCN)C(=O)N[C@H](Cc1ccc2ccccc2c1)C(=O)N[C@H](CCCNC(=N)N)C(=O)N[C@H](CCCCN)C(N)=O [LV-20] (Ac-[dR][dK][dL][dL][d2Nal][dR][dL][dK][d2Nal][dR][dK]-NH2)" experimental_system="Bacillus subtilis ATCC 6633" value_measured=2
compound="CC(=O)N[C@H](CCCNC(=N)N)C(=O)N[C@H](CCCCN)C(=O)N[C@H](CC(C)C)C(=O)N[C@H](CC(C)C)C(=O)N[C@H](Cc1ccc(Cl)cc1)C(=O)N[C@H](CCCCN)C(=O)N[C@H](CC(C)C)C(=O)N[C@H](CCCCN)C(=O)N[C@H](Cc1ccc(Cl)cc1)C(=O)N[C@H](CCCCN)C(=O)N[C@H](CCCNC(=N)N)C(N)=O [LV-7] (Ac-[dR][dK][dL][dL][dPhe(4-Cl)][dK][dL][dK][dPhe(4-Cl)][dK][dR]-NH2)" experimental_system="Bacillus subtilis ATCC 6633" value_measured=4
compound="CC(=O)N[C@H](CCCNC(=N)N)C(=O)N[C@H](CCCCN)C(=O)N[C@H](CC(C)C)C(=O)N[C@H](CC(C)C)C(=O)N[C@H](Cc1ccc(C)cc1)C(=O)N[C@H](CCCCN)C(=O)N[C@H](CC(C)C)C(=O)N[C@H](CCCCN)C(=O)N[C@H](Cc1ccc(C)cc1)C(=O)N[C@H](CCCCN)C(=O)N[C@H](CCCNC(=N)N)C(N)=O [LV-11] (Ac-[dR][dK][dL][dL][dPhe(4-Me)][dK][dL][dK][dPhe(4-Me)][dK][dR]-NH2)" experimental_system="Bacillus subtilis ATCC 6633" value_measured=4
